Origin of the recorded values: PubChem BioAssay AID1963964

System: 997726-040-R-J2-PDC tumor spheroids, viability
Test: Anticancer human tumor 997726-040-R-J2-PDC patient-derived squamous cell lung carcinoma cell line growth inhibition [PI3K]
Details: second compound 1 µM; first compound 0.316 µM; stronger effect = lower value; spheroids with HUVEC and MSC
assay metric: viability, T/C (%)
State just the number; it will be interpreted in %.

C[C@@H](NC(=O)c1ncnc(N)c1Cl)c1ncc(C(=O)Nc2cc(C(F)(F)F)c(Cl)cn2)s1 + Cc1nc(NC(=O)N2CCCC2C(N)=O)sc1-c1ccnc(C(C)(C)C(F)(F)F)c1 : 45.3
CCN1CCN(Cc2ccc(Nc3ncc(F)c(-c4cc(F)c5nc(C)n(C(C)C)c5c4)n3)nc2)CC1 + CC(Nc1ncnc2nc[nH]c12)c1cc2cccc(Cl)c2c(=O)n1-c1ccccc1 : 61.4
CC(Cn1ccc(-c2ccc(C#N)c(Cl)c2)n1)NC(=O)c1cc(C(C)O)[nH]n1 (configuration not stated) + CC(Nc1ccc2c(c1)OCCn1cc(N3C(=O)OCC3C(F)F)nc1-2)C(N)=O : 26.6
CCN1CCN(Cc2ccc(Nc3ncc(F)c(-c4cc(F)c5nc(C)n(C(C)C)c5c4)n3)nc2)CC1 + CC(Nc1ccc2c(c1)OCCn1cc(N3C(=O)OCC3C(F)F)nc1-2)C(N)=O : 20.4
C[C@@H](NC(=O)c1ncnc(N)c1Cl)c1ncc(C(=O)Nc2cc(C(F)(F)F)c(Cl)cn2)s1 + CC(Nc1ncnc2nc[nH]c12)c1cc2cccc(Cl)c2c(=O)n1-c1ccccc1 : 108

Now examine the next entry.
Lookup: Look up viability, T/C for this compound: CC(Cn1ccc(-c2ccc(C#N)c(Cl)c2)n1)NC(=O)c1cc(C(C)O)[nH]n1 (configuration not stated) + COc1c(OCCCN2CCOCC2)ccc2c3n(c(=NC(=O)c4cnc(N)nc4)nc12)CCN3
Found: 1.28

###

Tested on: 997726-040-R-J2-PDC tumor spheroids, viability
Assay: Anticancer human tumor 997726-040-R-J2-PDC cell line growth inhibition [PI3K];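 further: spheroids exposed to compounds for seven days before readout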
Conditions: second compound 0.0316 µM; first compound 10 µM; stronger effect = lower value; spheroids with HUVEC and MSC
Description: Combinatorial screen of targeted agents with the PI3K inhibitors inavolisib, alpelisib, duvelisib, and copanlisib in multi-cell type tumor spheroids A high-throughput screen of multi-cell type tumor spheroids was designed to identify active combinations of targeted small molecules and PI3K pathway inhibitors. […] Compounds. […] If the clinical Cmax for an agent had not been determined, the highest concentration tested was 10 microM. […]
assay metric: viability, T/C

These solved cases illustrate the format of a correct answer.
CC(C)NCC(C(=O)N1CCN(c2ncnc3c2C(C)CC3O)CC1)c1ccc(Cl)cc1 (stereo not given) + CC(Nc1ncnc2nc[nH]c12)c1cc2cccc(Cl)c2c(=O)n1-c1ccccc1 : 10.8%
C[C@@H](NC(=O)c1ncnc(N)c1Cl)c1ncc(C(=O)Nc2cc(C(F)(F)F)c(Cl)cn2)s1 + CC(Nc1ncnc2nc[nH]c12)c1cc2cccc(Cl)c2c(=O)n1-c1ccccc1 : 84.1%

Lookup: Record lookup: for 997726-040-R-J2-PDC tumor spheroids, viability, what viability, T/C belongs to C=CC(=O)N1CCN(c2nc(=O)n(-c3c(C)ccnc3C(C)C)c3nc(-c4c(O)cccc4F)c(F)cc23)C(C)C1 (stereo not given) + COc1c(OCCCN2CCOCC2)ccc2c3n(c(=NC(=O)c4cnc(N)nc4)nc12)CCN3 ?
Found: 34.8%

Lookup: Entry Cn1ncc(Cl)c1-c1cc(C(=O)NC(CN)Cc2cccc(F)c2)sc1Cl (stereo not given) + CC(Nc1ccc2c(c1)OCCn1cc(N3C(=O)OCC3C(F)F)nc1-2)C(N)=O , system 997726-040-R-J2-PDC tumor spheroids, viability: what viability, T/C was measured?
Found: 3.65%

Lookup: Identify the measured viability, T/C of C=CC(=O)N1CCN(c2nc(=O)n(-c3c(C)ccnc3C(C)C)c3nc(-c4c(O)cccc4F)c(F)cc23)C(C)C1 (stereo not given) + CC(Nc1ccc2c(c1)OCCn1cc(N3C(=O)OCC3C(F)F)nc1-2)C(N)=O for 997726-040-R-J2-PDC tumor spheroids, viability.
Found: 82.3%

###

Test system: 997726-040-R-J2-PDC tumor spheroids, viability
Experiment: Anticancer human tumor 997726-040-R-J2-PDC cell line growth inhibition [PI3K];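 further: spheroids exposed to compounds for seven days before readout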
Conditions: second compound 0.01 µM; first compound 0.316 µM; stronger effect = lower value; spheroids with HUVEC and MSC
assay metric: viability, T/C

Cn1nccc1Nc1nccc(-c2ccn(C(CO)c3ccc(Cl)c(F)c3)c(=O)c2)n1 (centres undefined) + CC(Nc1ccc2c(c1)OCCn1cc(N3C(=O)OCC3C(F)F)nc1-2)C(N)=O : 70.2%
CC1(C)CCC(Nc2ncc(C(F)(F)F)c(-c3c[nH]c4c(P(C)(C)=O)c(C#N)ccc34)n2)CN1 (centres undefined) + COc1c(OCCCN2CCOCC2)ccc2c3n(c(=NC(=O)c4cnc(N)nc4)nc12)CCN3 : 29.9%
CNC(=O)c1ccc(N2C(=S)N(c3ccc(C#N)c(C(F)(F)F)c3)C(=O)C2(C)C)cc1F + CC(Nc1ccc2c(c1)OCCn1cc(N3C(=O)OCC3C(F)F)nc1-2)C(N)=O : 79.6%

// next item, viability, T/C requested
Lookup: What value of measured viability, T/C is listed for C=CC(=O)N1CCN(c2nc(=O)n(-c3c(C)ccnc3C(C)C)c3nc(-c4c(O)cccc4F)c(F)cc23)C(C)C1 (centres undefined) + COc1c(OCCCN2CCOCC2)ccc2c3n(c(=NC(=O)c4cnc(N)nc4)nc12)CCN3 ?
Found: 51.2%

###

Tested on: 997726-040-R-J2-PDC tumor spheroids, viability
Assay: Anticancer human tumor 997726-040-R-J2-PDC cell line growth inhibition [PI3K];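 further: spheroids exposed to compounds for seven days before readout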
Settings: curve of first compound; second compound 0.01 µM; spheroids with HUVEC and MSC
Entries and their measured IC50 follow.

C=CC(=O)N1CCN(c2nc(=O)n(-c3c(C)ccnc3C(C)C)c3nc(-c4c(O)cccc4F)c(F)cc23)C(C)C1 (configuration not stated) + COc1c(OCCCN2CCOCC2)ccc2c3n(c(=NC(=O)c4cnc(N)nc4)nc12)CCN3 : > 10 µM
C[C@@H](NC(=O)c1ncnc(N)c1Cl)c1ncc(C(=O)Nc2cc(C(F)(F)F)c(Cl)cn2)s1 + CC(Nc1ccc2c(c1)OCCn1cc(N3C(=O)OCC3C(F)F)nc1-2)C(N)=O : > 10 µM
Cn1ncnc1[C@H]1c2n[nH]c(=O)c3cc(F)cc(c23)N[C@@H]1c1ccc(F)cc1 + CC(Nc1ccc2c(c1)OCCn1cc(N3C(=O)OCC3C(F)F)nc1-2)C(N)=O : > 0.1 µM
C=CC(=O)N1CCN(c2nc(=O)n(-c3c(C)ccnc3C(C)C)c3nc(-c4c(O)cccc4F)c(F)cc23)C(C)C1 (configuration not stated) + CC(Nc1ccc2c(c1)OCCn1cc(N3C(=O)OCC3C(F)F)nc1-2)C(N)=O : > 10 µM

Lookup: Name the reported IC50 value associated with the compound CC(Cn1ccc(-c2ccc(C#N)c(Cl)c2)n1)NC(=O)c1cc(C(C)O)[nH]n1 (configuration not stated) + CC(Nc1ccc2c(c1)OCCn1cc(N3C(=O)OCC3C(F)F)nc1-2)C(N)=O
Found: > 10 µM

###

# viability, T/C listing for each entry below
Test system: 997726-040-R-J2-PDC tumor spheroids, viability
Experiment: Anticancer human tumor 997726-040-R-J2-PDC cell line growth inhibition [PI3K];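 further: spheroids exposed to compounds for seven days before readout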
Conditions: second compound 0.316 µM; first compound 0.0316 µM; stronger effect = lower value; spheroids with HUVEC and MSC

CC(C)NCC(C(=O)N1CCN(c2ncnc3c2C(C)CC3O)CC1)c1ccc(Cl)cc1 (centres undefined) + COc1c(OCCCN2CCOCC2)ccc2c3n(c(=NC(=O)c4cnc(N)nc4)nc12)CCN3 : 6.3%
CC(C)n1nc(-c2ccc3oc(N)nc3c2)c2c(N)ncnc21 + CC(Nc1ccc2c(c1)OCCn1cc(N3C(=O)OCC3C(F)F)nc1-2)C(N)=O : 13.5%
CC(Cn1ccc(-c2ccc(C#N)c(Cl)c2)n1)NC(=O)c1cc(C(C)O)[nH]n1 (centres undefined) + Cc1nc(NC(=O)N2CCCC2C(N)=O)sc1-c1ccnc(C(C)(C)C(F)(F)F)c1 : 62.5%
Cn1nccc1Nc1nccc(-c2ccn(C(CO)c3ccc(Cl)c(F)c3)c(=O)c2)n1 (centres undefined) + COc1c(OCCCN2CCOCC2)ccc2c3n(c(=NC(=O)c4cnc(N)nc4)nc12)CCN3 : 5.76%
CNC(=O)c1ccc(N2C(=S)N(c3ccc(C#N)c(C(F)(F)F)c3)C(=O)C2(C)C)cc1F + Cc1nc(NC(=O)N2CCCC2C(N)=O)sc1-c1ccnc(C(C)(C)C(F)(F)F)c1 : 51.3%

Lookup: Which viability, T/C is reported with 997726-040-R-J2-PDC tumor spheroids, viability for this entry: Cn1ncnc1[C@H]1c2n[nH]c(=O)c3cc(F)cc(c23)N[C@@H]1c1ccc(F)cc1 + COc1c(OCCCN2CCOCC2)ccc2c3n(c(=NC(=O)c4cnc(N)nc4)nc12)CCN3 ?
Found: 5.95%

Lookup: Fill in the recorded viability, T/C for this compound, with 997726-040-R-J2-PDC tumor spheroids, viability as test system: CC(C)NCC(C(=O)N1CCN(c2ncnc3c2C(C)CC3O)CC1)c1ccc(Cl)cc1 (centres undefined) + CC(Nc1ncnc2nc[nH]c12)c1cc2cccc(Cl)c2c(=O)n1-c1ccccc1
Found: 87.1%

Lookup: Param readout = viability, T/C; param system = 997726-040-R-J2-PDC tumor spheroids, viability; param query = CC(Cn1ccc(-c2ccc(C#N)c(Cl)c2)n1)NC(=O)c1cc(C(C)O)[nH]n1 (centres undefined) + COc1c(OCCCN2CCOCC2)ccc2c3n(c(=NC(=O)c4cnc(N)nc4)nc12)CCN3 ; response: value
Found: 4.78%

Lookup: Missing value: viability, T/C, 997726-040-R-J2-PDC tumor spheroids, viability, entry CCN1CCN(Cc2ccc(Nc3ncc(F)c(-c4cc(F)c5nc(C)n(C(C)C)c5c4)n3)nc2)CC1 + CC(Nc1ccc2c(c1)OCCn1cc(N3C(=O)OCC3C(F)F)nc1-2)C(N)=O . Fill in?
Found: 26.4%
